Entries annotated with measured growth
Test system: OVCAR-5 ovarian
method: NCI-60 one-dose screen, 48 h (100 = growth as untreated, 0 = no growth, -100 = all killed)
test context: 10 µM unless noted
The panel holds about 83,000 compounds, 20% with a hit somewhere; the sample as a whole holds those more often.
Field format: number, assumed %, no unit text.

Worked cases, answers included:
CCOc1ccc2[nH]c(=O)c(C(c3nnnn3CC3CCCO3)N3CCN(Cc4ccccc4)CC3)cc2c1 (centres undefined)	97
COc1cc(CNC(=O)C[C@H](C)CCC=C(C)C)ccc1OCc1cn(-c2ccc(Br)cc2)nn1	105
CCCCCCCCCCCCCCCCCC(=O)Nc1ccc(OC)cc1	114
O=C(NNC(=S)NCCc1ccccc1)c1ccc(OCc2nc3ccc(Cl)cc3[nH]2)cc1	113
O=C1NC(=NC23CC4CC(CC(C4)C2)C3)N/C1=C\c1ccc2ncccc2c1	45.7

Exam item: Query for OVCAR-5 ovarian: what growth does the record show for COc1ccc2[nH]c(=O)c(CSc3ccccc3Nc3nccc(-c4ccc(Cl)cc4)n3)cc2c1 ?
Marked response: 84.7

Exam item: Query for OVCAR-5 ovarian: what growth does the record show for CCOc1ccc(-c2cc(-c3cc(C(C)C)c(O)cc3C)nn2-c2ccc(S(N)(=O)=O)cc2)cc1 ?
Marked response: 53

Exam item: Query for OVCAR-5 ovarian: what growth does the record show for COc1sc(/C=N/NC(=O)c2[nH]c3ccc(Br)cc3c2-c2ccccc2)cc1Cl ?
Marked response: -29.3

Exam item: Query for OVCAR-5 ovarian: what growth does the record show for COc1ccc(-c2cc(C(=O)N=Nc3c(O)[nH]c4ccc(Cl)cc34)c3ccccc3n2)cc1 ?
Marked response: 42.5

* * *

System: SN12C renal
method: NCI-60 one-dose screen, 48 h (100 = growth as untreated, 0 = no growth, -100 = all killed)
test context: 10 µM unless noted
About 83,000 compounds went through this panel and 20% of them were active in at least one assay; those are over-represented in the sample as a whole.
observable: growth (%)
Field format: number, assumed %, no unit text.

Worked cases, answers included:
COc1ccc2[nH]c(=O)cc(-n3ncc(C(=O)/C=C/c4cc(OC)c(OC)c(OC)c4)c3C)c2c1	7.21
C=CCSc1nnc(-c2ccc(-c3nc4ccc(Cl)cc4[nH]3)cc2)o1	63.1

Exam item: Requested read-out: growth. Entry: COc1ccc(-c2cc(C(=O)OCc3ccc(Br)cc3)nn2-c2ccc(S(C)(=O)=O)cc2)cc1OC
Marked response: 78.3

Exam item: Requested read-out: growth. Entry: O=C(NC(=S)N1CCN(c2ncnc3c2cnn3-c2ccccc2)CC1)c1ccc(F)cc1
Marked response: 64.9

Exam item: Requested read-out: growth. Entry: Cc1ccc2c(c1)/C(=C/C(=O)c1cc3ccccc3oc1=O)C(=O)N2
Marked response: 67.8

Exam item: Requested read-out: growth. Entry: Cc1ccc(C(=O)Nc2cc(-n3ccnc3)cc(C(F)(F)F)c2)cc1-n1cc(-c2cnc3cccnn23)nn1
Marked response: 105

Exam item: Requested read-out: growth. Entry: O=C1c2cccc3c(N4CCN(c5ccccc5)CC4)ccc(c23)C(=O)N1c1cccc(-c2nn(-c3ccccc3)cc2-c2nc3ccccc3s2)c1
Marked response: 103

Exam item: Requested read-out: growth. Entry: Cc1nn(-c2ccccc2)c2nc(C)n(CC(=O)N/N=C/c3cccc([N+](=O)[O-])c3)c(=O)c12
Marked response: 89.1

* * *

Entries annotated with measured growth
Test system: SK-MEL-5 melanoma
method: NCI-60 one-dose screen, 48 h (100 = growth as untreated, 0 = no growth, -100 = all killed)
test context: 10 µM unless noted
Compounds without any hit were thinned out: in the full panel of roughly 83,000, 20% have a hit.
Field format: number, assumed %, no unit text.

Worked cases, answers included:
COc1ccc2[nH]c(O)c(N=Nc3nc(-c4ccc(C#N)cc4)cs3)c2c1	53.7
COc1ccc(-c2nc3ccc(-c4nnc(SCC(=O)Nc5ccc(/C(C)=N\O)cc5)o4)cc3[nH]2)cc1	-75.7
CN1CCN(C(=O)Oc2cc3c(c4ccccc24)[C@H](CCl)CN3C(=O)c2cc3cc(OCCCN4CCC4)ccc3[nH]2)[C@@H]2CSSC[C@H]21	-74.1
CCCn1c(NC(=O)c2cccc(C(N)=O)c2)nc2cc(CN3CCCCC3)ccc21	88
COc1ccc(NC(=O)Cn2c(/C=C/c3cccc(Br)c3)nc3ccccc3c2=O)cc1	78.5

Exam item: Requested read-out: growth. Entry: Cc1ccc(O)cc1Nc1nc(SCCN2CCOCC2)nc2c1cnn2CC(Cl)c1ccc(Br)cc1 (centres undefined)
Marked response: -0.938

Exam item: Requested read-out: growth. Entry: O=C1c2cccc3c(N4CCN(c5ccccc5)CC4)ccc(c23)C(=O)N1c1cccc(-c2nn(-c3ccccc3)cc2-c2nc3ccccc3s2)c1
Marked response: 99

Exam item: Requested read-out: growth. Entry: Cc1cc(Cl)ccc1NC(=O)Nc1ccc(-c2ccc3c(c2)NC(=O)/C3=C\c2ccc[nH]2)cc1
Marked response: 106

* * *

Test system: OVCAR-4 ovarian
method: NCI-60 one-dose screen, 48 h (100 = growth as untreated, 0 = no growth, -100 = all killed)
test context: 10 µM unless noted
The panel holds about 83,000 compounds, 20% with a hit somewhere; the sample as a whole holds those more often.
observable: growth (%)
Field format: number, assumed %, no unit text.

N#CCc1nnc(NC(=O)c2ccc(-n3c(=O)[nH]c4ccccc4c3=O)cc2)s1	106
CC[C@]12C=CCN3CC[C@@]4(c5ccc(OC)cc5N(C)[C@H]4[C@@](O)(C(=O)OC)[C@@H]1OC(=O)CCC[P+](c1ccc(OC)cc1)(c1ccc(OC)cc1)c1ccc(OC)cc1)[C@@H]32	-75.3
Cc1ccc(C(C(=O)NC2CCCCC2)N(Cc2ccccc2Cl)C(=O)c2ccc(CN3CCOCC3)o2)o1 (stereo not given)	96.8
Cc1ccccc1Nc1nnc(-c2c[nH]c3ccccc23)o1	79.9

Exam item: Query for OVCAR-4 ovarian: what growth does the record show for O=C1N/C(=N\c2nccs2)S/C1=C\c1ccc([N+](=O)[O-])cc1 ?
Marked response: 12.4

* * *

System: COLO 205 colon
method: NCI-60 one-dose screen, 48 h
test context: 10 µM unless noted
This is part of a sample that, as a whole, favours compounds with a hit. Of some 83,000 tested, about 20% had one in any assay. Calls of active or inactive are those of the source. The calls were made as follows: active = growth percent below 10; inactive = the rest.
Give your call using only these classes: y = active, n = inactive

Solved entries (count: 4):
COc1cc(CNC(=O)C[C@H](C)CCC=C(C)C)ccc1OCc1cn(-c2ccc(Cl)cc2Cl)nn1	n
COC(=O)c1c(C(=O)OC)c2c3ccccc3c3ccccc3n2c1C(=O)C(F)(F)F	n
O=C1Nc2ccccc2/C1=C\c1ccc(OCC(=O)c2ccc(Br)cc2)cc1	n
CCCSc1nnc(-c2c(C)nc3sccn23)o1	n

Exam item: Hey, what did the test say about Cc1ccc(S(=O)(=O)Nc2ccc(-c3ccc4c(c3)NC(=O)/C4=C\c3ccc[nH]3)cc2)cc1 ?
Marked response: n

Exam item: Hey, what did the test say about COc1ccc(N=Nc2c(N)nn3c(-c4ccc(OC)c(OC)c4)ccnc23)cc1 ?
Marked response: n

Exam item: Hey, what did the test say about O=C1Nc2ccccc2/C1=C/C(=O)c1cc2ccccc2oc1=O ?
Marked response: y

* * *

System: OVCAR-8 ovarian
method: NCI-60 one-dose screen, 48 h (100 = growth as untreated, 0 = no growth, -100 = all killed)
test context: 10 µM unless noted
This is part of a sample that, as a whole, favours compounds with a hit. Of some 83,000 tested, about 20% had one in any assay. Active and inactive are the calls of the source. Rule for the calls: active = growth percent below 10; inactive = the rest.
Entries annotated with measured growth

Worked cases, answers included:
O=CNc1ccc(-n2cnc3cc(-c4ccc(O)cc4)ccc32)cc1	82.4% (inactive)
COc1cc(C2CC(c3cc(OC)c(OC)c(OC)c3)=Nc3c(N)nc(N)nc3N2)ccc1Oc1nc(Nc2ccc(F)cc2)nc(N(C)C)n1 (configuration not stated)	59% (inactive)
Cc1ccc(Cl)cc1NC(=O)Nc1nc2ccc([N+](=O)[O-])cc2s1	1.61% (active)
Cc1nc(Nc2ccccn2)sc1C1=NNC(c2ccccc2F)C1 (configuration not stated)	68% (inactive)

Exam item: Requested read-out: growth. Entry: Cc1ccc(C(C(=O)NC2CCCCC2)N(Cc2ccccc2Cl)C(=O)c2ccc(CN3CCOCC3)o2)o1 (configuration not stated)
Marked response: 104% (inactive)

Exam item: Requested read-out: growth. Entry: CCC(=O)c1c2c(c3ccc4c5ccccc5ccc4n13)C(=O)c1ccccc1C2=O
Marked response: 96.1% (inactive)

Exam item: Requested read-out: growth. Entry: O=C(Nc1nc2ccc([N+](=O)[O-])cc2s1)Nc1ccc(Cl)cc1Cl
Marked response: 48.4% (inactive)

* * *

Tested on: HCC-2998 colon
method: NCI-60 one-dose screen, 48 h
test context: 10 µM unless noted
Compounds without any hit were thinned out: in the full panel of roughly 83,000, 20% have a hit. Active and inactive are the calls of the source. How the source made its calls: active means growth percent below 10; inactive means the rest.
Give your call using only these classes: active, inactive

CCCCNC(=S)Nc1ccc(OCc2nc3ccc(Cl)cc3[nH]2)cc1	active

Exam item: Hey, what did the test say about COc1ccc2nc(NC(=O)c3ccc(N(C)C)cc3)sc2c1 ?
Marked response: inactive

Exam item: Hey, what did the test say about CCOc1ccccc1[C@H]1C(C(=O)c2ccc(Cl)cc2)C2(N[C@@H]1c1ccccc1)C(=O)Nc1ccc(Br)cc12 (some centres undefined) ?
Marked response: active

Exam item: Hey, what did the test say about Cn1cc(-c2cc(N)n3nc(-c4c[nH]c5ccc(F)cc45)cc3n2)c2cccnc21 ?
Marked response: active

Exam item: Hey, what did the test say about Cc1ccc(-c2cc(C(=O)N=Nc3c(O)[nH]c4ccc(F)cc34)c3ccccc3n2)cc1 ?
Marked response: inactive

Exam item: Hey, what did the test say about Cc1cc(C(NC(=O)CCCCCNc2cccc3c2C(=O)N(C2CCC(=O)CC2=O)C3=O)c2cccc(N(C)C)c2)c(O)c2ncccc12 (centres undefined) ?
Marked response: inactive
